- Tested on: DMS-114
- assay_name: NCI tumour cell line growth inhibition, 48 h
Active and inactive are the calls of the source. Cut-off read from the data, not from the text of the source: active = GI50 up to about 1.1 µM and inactive = higher.
property_label: GI50

Fill in reported GI50 for this entry: `COc1cc2cccc(/N=C/c3c(Br)ccc(OC)c3OC(C)C)c2cc1OC`
25.6 µM (inactive)

Fill in reported GI50 for this entry: `O=C(O)CCSC(=O)Nc1cccc2ccccc12`
> 100 µM (inactive)

Fill in reported GI50 for this entry: COC1C=CC23c4cc5c(cc4C(O)OC2CN(C)C3C1)OCO5 (stereo not drawn)
1.26 µM (inactive)

Fill in reported GI50 for this entry: `CC(C)(C)NN=C1C(C)(C)C(=NNC(C)(C)C)C1(C)C`
> 100 µM (inactive)

Fill in reported GI50 for this entry: `CC(C)(C)C(=O)CC(=O)C(C)(C)C.CC(C)(C)C(=O)CC(=O)C(C)(C)C.[SiH4]`
0.566 µM (active)

Fill in reported GI50 for this entry: COC(OC)c1cccc2c1C1(O)CCC3(CC21)OCCCCO3 (stereo not drawn)
> 100 µM (inactive)

Fill in reported GI50 for this entry: `CC1=C(C(=O)NCc2ccccc2)C(/C=C/c2ccccc2)C(C(=O)NCc2ccccc2)=C(C)N1`
> 100 µM (inactive)

Fill in reported GI50 for this entry: `CC(=O)c1cccc(NCn2nnc3ccccc32)c1`
> 100 µM (inactive)

Fill in reported GI50 for this entry: C=C1CC2OC(=O)C(=C)C2C(O)C2C(=C)CCC12 (stereo not drawn)
4.55 µM (inactive)

Fill in reported GI50 for this entry: CC(C)c1ccc(C2C3=C(N=C4SCC(=O)N42)C(=O)c2ccccc23)cc1 (stereo not drawn)
53.5 µM (inactive)

Fill in reported GI50 for this entry: Cc1ccc(S(=O)(=O)NC(=O)C#CCOC2CCCCO2)cc1 (stereo not drawn)
> 100 µM (inactive)

Fill in reported GI50 for this entry: `CC1(C)CC2CC(CC(C)(C)C2=O)C1=O`
> 100 µM (inactive)

Fill in reported GI50 for this entry: `Cc1cccc(C(C)C)c1NC(=O)C(=O)CC(=O)c1c(C)[n+]([O-])c2ccccc2[n+]1[O-]`
16.5 µM (inactive)

Fill in reported GI50 for this entry: O=C(Cc1ccccc1)NN1C(=O)C(Cl)C1c1cccc([N+](=O)[O-])c1 (stereo not drawn)
28.5 µM (inactive)

Fill in reported GI50 for this entry: Cc1ccc(N(C(=O)CC(=O)N2N=C(c3ccccc3)C(/N=N/c3ccc([N+](=O)[O-])cc3)C2=O)C(=O)c2ccc(Cl)cc2)cc1 (stereo not drawn)
20 µM (inactive)

Fill in reported GI50 for this entry: `CC1(C)C(=NN=C(N)N)C(C)(C)C1=NN=C(N)N`
> 100 µM (inactive)

Fill in reported GI50 for this entry: O/N=C1/C(=C/c2ccccc2)CCCC1C(NO)c1ccccc1 (stereo not drawn)
30.7 µM (inactive)

Fill in reported GI50 for this entry: COC(=O)C12Oc3ccc(-c4ccc5c(c4O)C(=O)C4=CCC(C)C(O)C4(C(=O)OC)O5)c(O)c3C(=O)C1=CCC(C)C2O (stereo not drawn)
1.3 µM (inactive)

From: ChEMBL document CHEMBL1201862
